# testedTarget: Cytochrome P450 3A4 (Homo sapiens)
# protocolNotes: qHTS Assay for Activators of Cytochrome P450 3A4 (AID 885); note: nearly all actives have a fitted effect of over 65% in size
# experimentalParameters: recombinant CYP3A4, Luciferin-PPXE luminescence, 60 min; series mostly up to 57.1 µM
The source made the active and inactive calls. Calls come from the whole dose curve; as a rule, active = well fitted activation curve with a large enough effect; inconclusive = small, poorly fitted or top-dose-only effect; inactive = no such curve, though single readings can be large or run the other way.
Lab note: assign the record to one of YES (active), NO (inactive)

Called result for CCCOc1ccc2[nH]cc(C3=CCNCC3)c2n1
NO

Called result for CCN(CC)CCO[C@H]1CC[C@@]2(C)C(=CC[C@@H]3[C@H]2CC[C@]2(C)C(=O)CC[C@H]32)C1
YES

Called result for Cc1cccc([C@H](C)c2cnc[nH]2)c1C
NO

Called result for CC(C)(C)NC[C@@H](O)COc1cccc2[nH]c(C#N)cc12
NO

Called result for CN1CC(CO)=C[C@H]2c3cccc4[nH]cc(c34)C[C@H]21
NO

Called result for Clc1ccc(COC(Cn2ccnc2)c2ccc(Cl)cc2Cl)c(Cl)c1 (stereo unspecified)
NO

Called result for C[C@H](N)Cc1c[nH]c2ccc(OCc3cccs3)cc12
NO

Called result for Clc1cncc(N2CCNCC2)n1
NO

Called result for O=C1Nc2ccc(I)cc2/C1=C/c1cc(Br)c(O)c(Br)c1
NO

Called result for COC(=O)CN1CN(c2ccccc2)C2(CCN(Cc3ccc4ccccc4c3)CC2)C1=O
NO

Called result for COc1ccc2ccc(=O)oc2c1CC=C(C)C
NO

---

# Tested on: CRL-7250
# protocolNotes: qHTS assay to identify novel small-molecules to repurpose for Merkel cell carcinoma treatment (AID 1296009); note: nearly all actives have a fitted effect of over 60% in size
# experimentalParameters: MCC and control cell lines, CellTiter-Glo viability, 72 h; series mostly up to 92 µM
Records with an inconclusive call do not appear. The source made the active and inactive calls. Calls follow the shape of the dose curve; as a rule, active = well fitted inhibition curve with a large enough effect; inconclusive = small, poorly fitted or top-dose-only effect; inactive = flat fitted curve, though single readings scatter.
metricName: outcome

Example cases with answers are listed next.
1. Cc1c(N[C@@H](c2nnc(-c3ccc(C#N)cc3)o2)[C@H](C)O)ccc(C#N)c1Cl :: inactive
2. CC(O)C(C)n1ncn(-c2ccc(N3CCN(c4ccc(OCC5COC(Cn6cncn6)(c6ccc(Cl)cc6Cl)O5)cc4)CC3)cc2)c1=O (stereo not drawn) :: inactive
3. C=C1C(=O)OC2CC(C)=C(C(C)CCCO)C(O)C12 (stereo not drawn) :: inactive
4. COc1cc(Nc2nc3c(s2)CCCC3c2ccccc2)ccc1-n1cnc(C)c1 (stereo not drawn) :: inactive [at 9.27 µM]
5. O=C(O)CCC=CCC[C@@H]1[C@H](N2CCCCC2)[C@@H](O)C[C@@H]1OCc1ccc(-c2ccccc2)cc1 :: inactive
6. NC(=O)[C@H]1CCCCc2c1[nH]c1ccc(Cl)cc21 :: inactive
7. C=C1CC[C@@]2(OC1)O[C@H]1CC3C4CC=C5C[C@@H](O[C@@H]6O[C@@H](C)[C@H](O)[C@@H](O)[C@H]6O)C[C@@H](O[C@@H]6O[C@H](C)[C@H](O)[C@H](O)[C@H]6O[C@@H]6O[C@@H](C)[C@H](O)[C@@H](O)[C@H]6O)[C@]5(C)C4CC[C@]3(C)[C@H]1[C@@H]2C (stereo partly drawn) :: inactive [at 9.27 µM]

Okay, next one:
What value of measured outcome is listed for CC(C)(OC1OC(CO)C(O)C(O)C1O)C1CCC(O)(CO)C2CC(=O)C(C)(O)C2C1 (stereo not drawn) ?
inactive

---

# Test system: CP192
# protocolNotes: qHTS profiling for inhibitors of Plasmodium falciparum proliferation (AID 504749); note: nearly all actives have a fitted effect of over 60% in size
# experimentalParameters: P. falciparum in erythrocytes, SYBR Green DNA, 72 h; series mostly up to 28.7 µM
Inconclusive results are not listed. Active and inactive are the calls of the source. The call rests on the fitted dose curve; in most records, active means well fitted inhibition curve with a large enough effect; inconclusive means small, poorly fitted or top-dose-only effect; inactive means flat fitted curve, though single readings scatter.
Lab note: assign the record to one of 1.0 (active), 0.0 (inactive)

Called result for O=C(O)c1ccccc1-c1c2cc(Br)c(=O)cc-2oc2[c]([Hg])c(O)c(Br)cc12
0.0

Called result for CCN(CC)CCO[C@H]1CC[C@@]2(C)C(=CC[C@@H]3[C@H]2CC[C@]2(C)C(=O)CC[C@H]32)C1
0.0

Called result for Cc1cccc([C@H](C)c2cnc[nH]2)c1C
0.0

Called result for C[N+](C)(C)CC(=O)[O-]
0.0

Called result for CO[C@H]1[C@@H](O)CC(OC2[C@@H](O)CC(OC3[C@@H](O)C[C@H](OC4CC[C@@]5(C)C(CCC6C5CC(O)[C@]5(C)[C@H](C7=CC(=O)OC7)CCC65O)C4)O[C@@H]3C)O[C@@H]2C)O[C@@H]1C (stereo partly specified)
0.0

Called result for CC(C)[C@@]1(NC(=O)[C@H]2CC3c4cccc5[nH]cc(c45)C[C@H]3N(C)C2)O[C@@]2(O)C3CCCN3C(=O)[C@@H](Cc3ccccc3)N2C1=O (stereo partly specified)
1.0

---

# Test system: CRL-7250
# protocolNotes: qHTS assay to identify novel small-molecules to repurpose for Merkel cell carcinoma treatment (AID 1296009); note: nearly all actives have a fitted effect of over 60% in size
# experimentalParameters: MCC and control cell lines, CellTiter-Glo viability, 72 h; series mostly up to 92 µM
Inconclusive results are not listed. Calls of active or inactive are those of the source. The call rests on the fitted dose curve; in most records, active means well fitted inhibition curve with a large enough effect; inconclusive means small, poorly fitted or top-dose-only effect; inactive means flat fitted curve, though single readings scatter.
metricName: outcome

Example cases with answers are listed next.
1) O=C(O)CC1(O)C(=O)Nc2ccccc21 (stereo not drawn) :: inactive
2) Clc1cccc(-n2nnnc2NCc2ccccc2Oc2ccccn2)c1Cl :: inactive
3) COc1ccc(-c2ccc(-c3cn(C(=O)N4CCCCC4c4ccccc4)nn3)cc2)cc1 (stereo not drawn) :: inactive
4) CCCSc1nc(N[C@@H]2C[C@H]2c2ccc(F)c(F)c2)c2nnn([C@@H]3C[C@H](OCCO)[C@@H](O)[C@H]3O)c2n1 :: inactive
5) C[C@@H]1CC[C@]2(C)C(C[C@@H](O)[C@H](O)[C@]23CO3)[C@@]1(C)CCc1ccoc1 (stereo partly drawn) :: inactive

What value of measured outcome is listed for C[C@@H]1O[C@@H](O[C@H]2[C@H](OC(=O)[C@]34CCC(C)(C)C[C@H]3C3=CCC5[C@@]6(C)C[C@H](O)[C@H](O[C@@H]7O[C@H](CO)[C@@H](O[C@H]8OC[C@](O)(CO)[C@H]8O)[C@H](O)[C@H]7O)[C@@](C)(CO)C6[C@H](O)C[C@@]5(C)[C@]3(C)C[C@H]4O)OC[C@H](O)[C@@H]2O)[C@H](O)[C@H](O)[C@H]1O[C@@H]1OC[C@@H](O)[C@H](O[C@@H]2OC[C@](O)(CO)[C@H]2O)[C@H]1O (stereo partly drawn) ?
inactive [at 9.27 µM]

What value of measured outcome is listed for C=C(C)C1CCC2(C(=O)O[C@@H]3O[C@H](CO[C@@H]4O[C@H](CO)[C@@H](O)[C@H](O)[C@H]4O)[C@@H](O)[C@H](O[C@@H]4O[C@@H](C)[C@H](O)[C@@H](O)[C@H]4O)[C@H]3O)CCC3(C(=O)O)C(CCC4C5(C)CCC(O)C(C)(C)C5CCC43C)C12 (stereo partly drawn) ?
inactive [at 9.27 µM]

What value of measured outcome is listed for O=C(/C=C/N1C[C@@H]2C[C@@H]1CN2c1ccccn1)c1ccccc1O ?
inactive

---

# testedTarget: Luciferin 4-monooxygenase (Photinus pyralis)
# protocolNotes: Primary firefly luciferase (FLuc) qHTS assay for identification of artifact compounds. (AID 1845220); note: nearly all actives have a fitted effect of over 60% in size
# experimentalParameters: purified firefly luciferase, luminescence, 5 min; at 54.1 µM (top of the series) unless noted; series mostly up to 54.1 µM
The source made the active and inactive calls. Calls come from the whole dose curve; as a rule, active = well fitted inhibition curve with a large enough effect; inconclusive = small, poorly fitted or top-dose-only effect; inactive = flat fitted curve, though single readings scatter. *1 amine or outer side, *2 acyl side, *3 side chain or, on linkers, in order; H or OH if unused. Where a SMILES comes first, the peptide text is derived from it. [ ]: non-standard residue; d: D form. X5 = CC(CC(O[*:1])C(=O)[*:2])C(=O)O; NMeV = CN[CH](C(=O)O)C(C)C; NMeA = CN[CH](C)C(=O)O; βAla = NCCC(=O)O
metricName: outcome

Example cases with answers are listed next.
1. NC(=O)[C@@H](CC1CC1)[C@@H](CCC(F)(F)F)C(=O)N[C@H]1N=C(c2ccccc2)c2cccc(F)c2NC1=O :: inactive
2. CC[C@@]1(O)C(=O)OCc2c1cc1n(c2=O)Cc2cc3c(OC)cccc3nc2-1 :: inactive
3. CC(=O)OC[C@]12C[C@H](OC(=O)CC(C)C)C(C)=C[C@H]1O[C@@H]1[C@H](O)[C@@H](O)[C@@]2(C)[C@]12CO2 :: inactive
4. COc1ccsc1CNCC[C@@]1(c2ccccn2)CCOC2(CCCC2)C1 :: inactive
5. CCC(C)C1NC(=O)C2CCCN2C(=O)C(CC(C)C(=O)O)OC(=O)CCNC(=O)C(C)N(C)C(=O)C(C(C)C)N(C)C1=O (configuration not stated) (cyclo([X5]PI[NMeV][NMeA][βAla]); configuration not given here) :: inactive

What value of measured outcome is listed for CO/C1=C\C(C)=C\[C@@H](C)[C@@H](O)[C@@H](C)C/C(C)=C/C=C/[C@H](OC)[C@@H]([C@@H](C)[C@@H](O)[C@H](C)[C@@]2(O)C[C@@H](O)[C@H](C)[C@@H](C(C)C)O2)OC1=O ?
inactive
